Tested on: NCI-H1650
Assay: relative viability (nuclei count vs DMSO), 5 days (fraction); higher = more cells survive
Conditions: first compound 1.265 µM
measurement name: relative viability
Give your answer as a number; write no unit.

{"columns": ["compound", "assay target", "relative viability"],
 "data": [
  ["COc1cc(N2CCC(C(N)=O)CC2)ccc1Nc1nc(N)c(Cl)c(Nc2ccccc2S(=O)(=O)C(C)C)n1 [HG-5-88-01] + CC(C)C[C@H](NC(=O)[C@H](Cc1ccccc1)NC(=O)c1cnccn1)B(O)O [Bortezomib] (partner 0.002 µM)", "NCI-H1650", 0.185]
]}

Provide NCI-H1650 relative viability reading for COc1cc(N2CCC(C(N)=O)CC2)ccc1Nc1nc(N)c(Cl)c(Nc2ccccc2S(=O)(=O)C(C)C)n1 [HG-5-88-01] + O=C(c1cc(Cc2n[nH]c(=O)c3ccccc23)ccc1F)N1CCN(C(=O)C2CC2)CC1 [Olaparib] (partner 8 µM) .
0.65

Provide NCI-H1650 relative viability reading for Clc1ccc(Nc2nnc(Cc3ccncc3)c3ccccc23)cc1 [Vatalanib] + Nc1ncn([C@H]2C[C@H](O)[C@@H](CO)O2)c(=O)n1 [Decitabine] (partner 2 µM) .
0.373

Provide NCI-H1650 relative viability reading for Clc1ccc(Nc2nnc(Cc3ccncc3)c3ccccc23)cc1 [Vatalanib] + CC(=O)c1c(C)c2cnc(Nc3ccc(N4CCNCC4)cn3)nc2n(C2CCCC2)c1=O [Palbociclib] (partner 0.5 µM) .
0.33

Provide NCI-H1650 relative viability reading for Clc1ccc(Nc2nnc(Cc3ccncc3)c3ccccc23)cc1 [Vatalanib] + O=C(c1cc(Cc2n[nH]c(=O)c3ccccc23)ccc1F)N1CCN(C(=O)C2CC2)CC1 [Olaparib] (partner 8 µM) .
0.74

Provide NCI-H1650 relative viability reading for COc1cc(N2CCC(C(N)=O)CC2)ccc1Nc1nc(N)c(Cl)c(Nc2ccccc2S(=O)(=O)C(C)C)n1 [HG-5-88-01] + CC(=O)c1c(C)c2cnc(Nc3ccc(N4CCNCC4)cn3)nc2n(C2CCCC2)c1=O [Palbociclib] (partner 0.5 µM) .
0.298

Provide NCI-H1650 relative viability reading for Clc1ccc(Nc2nnc(Cc3ccncc3)c3ccccc23)cc1 [Vatalanib] + O=C(CCCCCCC(=O)Nc1ccccc1)NO [Vorinostat] (partner 1 µM) .
0.473

Provide NCI-H1650 relative viability reading for Clc1ccc(Nc2nnc(Cc3ccncc3)c3ccccc23)cc1 [Vatalanib] + CCNC(=O)c1noc(-c2cc(C(C)C)c(O)cc2O)c1-c1ccc(CN2CCOCC2)cc1 [Luminespib] (partner 0.01 µM) .
0.203

###

Each entry below carries its recorded relative viability.
System: EKVX
Experiment: relative viability (nuclei count vs DMSO), 5 days (fraction); higher = more cells survive
Settings: first compound 0.1265 µM
Give your answer as a number; write no unit.

Worked examples, 8 compounds total:
{"columns": ["compound", "reported value"],
 "data": [
  ["Clc1ccc(Nc2nnc(Cc3ccncc3)c3ccccc23)cc1 [Vatalanib] + Nc1ncn([C@H]2C[C@H](O)[C@@H](CO)O2)c(=O)n1 [Decitabine] (partner 2 µM)", 0.346],
  ["COc1cc(N2CCC(C(N)=O)CC2)ccc1Nc1nc(N)c(Cl)c(Nc2ccccc2S(=O)(=O)C(C)C)n1 [HG-5-88-01] + Cc1cc(Nc2cc(N3CCN(C)CC3)nc(Sc3ccc(NC(=O)C4CC4)cc3)n2)n[nH]1 [Tozasertib] (partner 0.1 µM)", 0.396],
  ["Clc1ccc(Nc2nnc(Cc3ccncc3)c3ccccc23)cc1 [Vatalanib] + COc1cccc2cc(-c3nc([C@H]4CC[C@H](C(=O)O)CC4)n4ncnc(N)c34)[nH]c12 [OSI-027] (partner 0.5 µM)", 0.663],
  ["COc1cc(N2CCC(C(N)=O)CC2)ccc1Nc1nc(N)c(Cl)c(Nc2ccccc2S(=O)(=O)C(C)C)n1 [HG-5-88-01] + Cc1nc(Nc2ncc(C(=O)Nc3c(C)cccc3Cl)s2)cc(N2CCN(CCO)CC2)n1 [Dasatinib] (partner 0.075 µM)", 0.563],
  ["COc1cc(N2CCC(C(N)=O)CC2)ccc1Nc1nc(N)c(Cl)c(Nc2ccccc2S(=O)(=O)C(C)C)n1 [HG-5-88-01] + O=C(c1cc(Cc2n[nH]c(=O)c3ccccc23)ccc1F)N1CCN(C(=O)C2CC2)CC1 [Olaparib] (partner 8 µM)", 0.955],
  ["Clc1ccc(Nc2nnc(Cc3ccncc3)c3ccccc23)cc1 [Vatalanib] + CS(=O)(=O)N1CCN(Cc2cc3nc(-c4cccc5[nH]ncc45)nc(N4CCOCC4)c3s2)CC1 [Pictilisib] (partner 1 µM)", 0.463],
  ["COc1cc(N2CCC(C(N)=O)CC2)ccc1Nc1nc(N)c(Cl)c(Nc2ccccc2S(=O)(=O)C(C)C)n1 [HG-5-88-01] + CS(=O)(=O)N1CCN(Cc2cc3nc(-c4cccc5[nH]ncc45)nc(N4CCOCC4)c3s2)CC1 [Pictilisib] (partner 1 µM)", 0.426],
  ["Clc1ccc(Nc2nnc(Cc3ccncc3)c3ccccc23)cc1 [Vatalanib] + CCNC(=O)c1noc(-c2cc(C(C)C)c(O)cc2O)c1-c1ccc(CN2CCOCC2)cc1 [Luminespib] (partner 0.01 µM)", 0.805]
]}

Return reported relative viability. Input compound: COc1cc(N2CCC(C(N)=O)CC2)ccc1Nc1nc(N)c(Cl)c(Nc2ccccc2S(=O)(=O)C(C)C)n1 [HG-5-88-01] + Cc1nc(NC(=O)N2CCC[C@H]2C(N)=O)sc1-c1ccnc(C(C)(C)C(F)(F)F)c1 [Alpelisib] (partner 2 µM)
0.914

###

Tested on: A-427
Assay: relative viability (nuclei count vs DMSO), 5 days (fraction); higher = more cells survive
Details: first compound 4 µM
Each entry below carries its recorded relative viability.

{"columns": ["compound", "relative viability"],
 "data": [
  ["Clc1ccc(Nc2nnc(Cc3ccncc3)c3ccccc23)cc1 [Vatalanib] + Nc1ncn([C@H]2C[C@H](O)[C@@H](CO)O2)c(=O)n1 [Decitabine] (partner 2 µM)", 0.535],
  ["COc1cc(N2CCC(C(N)=O)CC2)ccc1Nc1nc(N)c(Cl)c(Nc2ccccc2S(=O)(=O)C(C)C)n1 [HG-5-88-01] + CCNC(=O)c1noc(-c2cc(C(C)C)c(O)cc2O)c1-c1ccc(CN2CCOCC2)cc1 [Luminespib] (partner 0.01 µM)", 0.754]
]}

// below: relative viability requested for another compound
Return reported relative viability. Input compound: COc1cc(N2CCC(C(N)=O)CC2)ccc1Nc1nc(N)c(Cl)c(Nc2ccccc2S(=O)(=O)C(C)C)n1 [HG-5-88-01] + NC(=O)Nc1cc(-c2cccc(F)c2)sc1C(=O)N[C@H]1CCCNC1 [AZD7762] (partner 0.2 µM)
0.679

###

System: NCI-H2087
Test: relative viability (nuclei count vs DMSO), 5 days (fraction); higher = more cells survive
Details: first compound 0.1265 µM
Checkbox rule: relative viability lower than 0.5 = satisfied; relative viability not lower than 0.5 = not satisfied.

Known results for molecules:
{"columns": ["molecule", "qualitative label"],
 "data": [
  ["Clc1ccc(Nc2nnc(Cc3ccncc3)c3ccccc23)cc1 [Vatalanib] + COc1cccc2cc(-c3nc([C@H]4CC[C@H](C(=O)O)CC4)n4ncnc(N)c34)[nH]c12 [OSI-027] (partner 0.5 µM)", "satisfied"],
  ["Clc1ccc(Nc2nnc(Cc3ccncc3)c3ccccc23)cc1 [Vatalanib] + CC(C)C[C@H](NC(=O)[C@H](Cc1ccccc1)NC(=O)c1cnccn1)B(O)O [Bortezomib] (partner 0.002 µM)", "not satisfied"],
  ["Clc1ccc(Nc2nnc(Cc3ccncc3)c3ccccc23)cc1 [Vatalanib] + C[C@@H](Oc1cc(-c2cnn(C3CCNCC3)c2)cnc1N)c1c(Cl)ccc(F)c1Cl [Crizotinib] (partner 1 µM)", "not satisfied"],
  ["COc1cc(N2CCC(C(N)=O)CC2)ccc1Nc1nc(N)c(Cl)c(Nc2ccccc2S(=O)(=O)C(C)C)n1 [HG-5-88-01] + Cc1nc(NC(=O)N2CCC[C@H]2C(N)=O)sc1-c1ccnc(C(C)(C)C(F)(F)F)c1 [Alpelisib] (partner 2 µM)", "not satisfied"]
]}

Could you please tell me whether relative viability recorded for C[C@@H]1CN(CC(=O)Nc2ccc3c(c2)Cc2cccc(-c4cc(=O)cc(N5CCOCC5)o4)c2S3)C[C@H](C)O1 + CC(=O)Nc1cccc(-n2c(=O)n(C3CC3)c(=O)c3c(Nc4ccc(I)cc4F)n(C)c(=O)c(C)c32)c1 [Trametinib] (partner 0.02 µM) is less than 0.5?
satisfied

###

System: NCI-H1793
Assay: relative viability (nuclei count vs DMSO), 5 days (fraction); higher = more cells survive
Settings: first compound 1.265 µM
measurement name: relative viability
Give your answer as a number; write no unit.

{"columns": ["compound", "assay target", "relative viability"],
 "data": [
  ["Clc1ccc(Nc2nnc(Cc3ccncc3)c3ccccc23)cc1 [Vatalanib] + CC(=O)Nc1cccc(-n2c(=O)n(C3CC3)c(=O)c3c(Nc4ccc(I)cc4F)n(C)c(=O)c(C)c32)c1 [Trametinib] (partner 0.02 µM)", "NCI-H1793", 0.388]
]}

Return reported relative viability. Input compound: Clc1ccc(Nc2nnc(Cc3ccncc3)c3ccccc23)cc1 [Vatalanib] + Cc1cc(Nc2cc(N3CCN(C)CC3)nc(Sc3ccc(NC(=O)C4CC4)cc3)n2)n[nH]1 [Tozasertib] (partner 0.1 µM)
0.276

Return reported relative viability. Input compound: COc1cc(N2CCC(C(N)=O)CC2)ccc1Nc1nc(N)c(Cl)c(Nc2ccccc2S(=O)(=O)C(C)C)n1 [HG-5-88-01] + O=C(CCCCCCC(=O)Nc1ccccc1)NO [Vorinostat] (partner 1 µM)
0.575
